target: Gal(b1-4)GlcNAc(b1-2)Man(a1-3)Man(b1-4)GlcNAc(b1-4)GlcNAc; assay: glycan array binding signal (z-score within array); higher = stronger binding; settings: glycan notation: IUPAC condensed, linker removed
Many of the other results were omitted from the sample, so the strongest signals are more common in it than they were.
Parameter: glycan array binding signal (z-score). Scope: all listed entries.

{"columns": ["binder", "glycan array binding signal (z-score)"],
 "data": [
  ["Eosinophil cationic protein (ECP) (Homo sapiens), P12724 (protein) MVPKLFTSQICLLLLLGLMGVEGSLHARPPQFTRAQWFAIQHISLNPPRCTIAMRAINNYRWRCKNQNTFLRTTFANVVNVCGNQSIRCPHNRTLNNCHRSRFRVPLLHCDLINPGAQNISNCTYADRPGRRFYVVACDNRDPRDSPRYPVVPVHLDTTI", -0.103],
  ["rCNL (Clitocybe nebularis), B2ZRS9 (protein) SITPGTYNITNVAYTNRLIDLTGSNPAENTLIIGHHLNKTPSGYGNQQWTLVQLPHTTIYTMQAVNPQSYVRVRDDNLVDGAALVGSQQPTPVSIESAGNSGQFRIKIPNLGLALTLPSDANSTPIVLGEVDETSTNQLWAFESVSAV", -0.275],
  ["EULS2 M4 (Oryza sativa) (protein) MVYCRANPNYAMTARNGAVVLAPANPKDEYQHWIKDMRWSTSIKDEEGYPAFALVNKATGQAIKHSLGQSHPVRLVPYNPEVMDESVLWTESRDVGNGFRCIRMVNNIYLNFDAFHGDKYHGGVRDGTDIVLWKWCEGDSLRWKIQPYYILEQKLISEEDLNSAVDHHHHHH", 2.57],
  ["Morniga (Morus nigra) (protein) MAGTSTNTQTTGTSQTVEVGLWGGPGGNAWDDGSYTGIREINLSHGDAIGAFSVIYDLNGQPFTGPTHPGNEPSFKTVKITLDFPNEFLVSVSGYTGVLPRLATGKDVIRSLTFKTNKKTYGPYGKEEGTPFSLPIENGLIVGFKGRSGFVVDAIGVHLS", 4.3],
  ["Gal 9 (Canis lupus) (protein) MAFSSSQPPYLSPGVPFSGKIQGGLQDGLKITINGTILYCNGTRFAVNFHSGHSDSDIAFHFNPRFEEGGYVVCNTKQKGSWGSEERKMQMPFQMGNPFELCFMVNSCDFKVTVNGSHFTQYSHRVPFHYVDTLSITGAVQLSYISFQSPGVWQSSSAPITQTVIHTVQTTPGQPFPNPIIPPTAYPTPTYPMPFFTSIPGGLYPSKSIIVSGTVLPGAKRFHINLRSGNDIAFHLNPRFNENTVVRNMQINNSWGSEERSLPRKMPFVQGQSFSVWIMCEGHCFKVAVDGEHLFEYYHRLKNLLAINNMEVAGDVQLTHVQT", 0.09],
  ["Clrb (Mus musculus) (protein) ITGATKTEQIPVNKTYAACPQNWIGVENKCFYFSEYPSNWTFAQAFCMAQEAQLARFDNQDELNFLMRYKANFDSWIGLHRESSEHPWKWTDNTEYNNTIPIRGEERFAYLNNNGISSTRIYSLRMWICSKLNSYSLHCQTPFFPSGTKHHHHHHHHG", -0.355]
]}
